Target: CLK2 kinase (Homo sapiens, UniProt P49760)
Construct: purchased Life Technologies
Sequence (P49760 whole entry): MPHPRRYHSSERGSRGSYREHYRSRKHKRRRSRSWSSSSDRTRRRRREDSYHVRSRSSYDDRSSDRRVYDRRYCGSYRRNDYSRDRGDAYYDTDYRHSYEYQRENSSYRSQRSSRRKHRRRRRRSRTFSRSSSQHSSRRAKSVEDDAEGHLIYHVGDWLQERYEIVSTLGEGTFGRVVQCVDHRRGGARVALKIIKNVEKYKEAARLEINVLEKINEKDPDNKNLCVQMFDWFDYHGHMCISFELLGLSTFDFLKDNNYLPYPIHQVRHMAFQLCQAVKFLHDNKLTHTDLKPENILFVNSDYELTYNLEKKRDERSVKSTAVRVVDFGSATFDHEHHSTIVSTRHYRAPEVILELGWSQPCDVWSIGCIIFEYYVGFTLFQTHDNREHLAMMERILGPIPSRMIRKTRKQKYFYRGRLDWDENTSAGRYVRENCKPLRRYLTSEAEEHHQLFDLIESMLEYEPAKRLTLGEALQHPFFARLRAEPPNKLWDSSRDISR
Assay: Z'-LYTE kinase assay, inhibitory activity for CLK2 kinase
Format: biochemical
Settings: compound concentration of 100 nM, read-out: Degree of inhibition (%)
Experimental: Inhibitory activity of the exemplary compounds among the foregoing compounds with respect to AXL, CLK2, VEGFR2 (KDR), NUAK1 kinases were measured. […]

| molecule | inhibition at 0.1 µM |
| --- | --- |
| Cc1ccc2c(-c3nc(Nc4cc(C5CC5)cc(N5CCN(CCO)CC5)c4)ncc3Cl)c[nH]c2c1 | 91% |
| CC(C)(CO)N1CCN(Cc2cc(Nc3ncc(Cl)c(-c4c[nH]c5ccccc45)n3)cc(C3CC3)c2)CC1 | 97% |
| Cc1ccc2c(-c3nc(Nc4cc(C5CC5)cc(N5CCC(N(C)C)C5)c4)ncc3Cl)c[nH]c2c1 (stereo not drawn) | 77% |
| Cc1ccc2c(-c3nc(Nc4cc(C5CC5)cc(N5CCN(C(C)(C)CO)CC5)c4)ncc3Cl)c[nH]c2c1 | 93% |
| Cc1ccc2c(-c3nc(Nc4cc(C5CC5)cc(N5CCC(N(C)C)CC5)c4)ncc3Cl)c[nH]c2c1 | 66% |
| OCCN1CCN(c2cc(Nc3ncc(Cl)c(-c4c[nH]c5cc(F)ccc45)n3)cc(C3CC3)c2)CC1 | 99% |

----------
As shown below, each of these compounds has a reported inhibition at 0.1 µM value.
Biological target: NUAK1 (ARK5) kinase (Homo sapiens, UniProt O60285)
Construct: purchased Life Technologies
Sequence (O60285 1-661): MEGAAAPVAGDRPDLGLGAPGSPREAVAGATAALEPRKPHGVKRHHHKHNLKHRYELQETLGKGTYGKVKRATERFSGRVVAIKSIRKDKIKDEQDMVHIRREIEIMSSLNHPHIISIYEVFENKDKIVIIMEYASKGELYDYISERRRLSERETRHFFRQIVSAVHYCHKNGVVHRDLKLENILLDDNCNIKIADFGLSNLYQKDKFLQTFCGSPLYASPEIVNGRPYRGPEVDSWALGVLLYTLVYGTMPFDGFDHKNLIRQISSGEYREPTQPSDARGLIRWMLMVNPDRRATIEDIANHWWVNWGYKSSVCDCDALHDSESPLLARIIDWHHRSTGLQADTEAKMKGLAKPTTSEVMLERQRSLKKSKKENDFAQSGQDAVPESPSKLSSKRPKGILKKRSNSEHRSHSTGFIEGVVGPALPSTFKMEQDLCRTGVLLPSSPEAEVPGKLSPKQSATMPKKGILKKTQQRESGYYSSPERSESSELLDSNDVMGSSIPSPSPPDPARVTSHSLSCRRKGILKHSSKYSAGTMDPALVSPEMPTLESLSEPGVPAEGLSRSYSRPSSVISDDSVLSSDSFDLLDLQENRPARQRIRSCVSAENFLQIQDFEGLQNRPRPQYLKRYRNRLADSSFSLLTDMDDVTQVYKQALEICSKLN
Assay: Adapta Universal kinase assay, inhibitory activity for NUAK1 kinase
Format: biochemical
Conditions: compound concentration of 100 nM, read-out: Degree of inhibition (%)

| compound | experimental-target | inhibition at 0.1 µM |
| --- | --- | --- |
| CC(C)(CO)N1CCN(Cc2cc(Nc3ncc(Cl)c(-c4c[nH]c5ccccc45)n3)cc(C3CC3)c2)CC1 [Example 38] | NUAK1 (ARK5) kinase (Homo sapiens, UniProt O60285) | 63% |
| OCCN1CCN(c2cc(Nc3ncc(Cl)c(-c4c[nH]c5cc(F)ccc45)n3)cc(C3CC3)c2)CC1 [Example 1] | NUAK1 (ARK5) kinase (Homo sapiens, UniProt O60285) | 84% |
| Cc1ccc2c(-c3nc(Nc4cc(C5CC5)cc(N5CCC(N(C)C)CC5)c4)ncc3Cl)c[nH]c2c1 [Example 6] | NUAK1 (ARK5) kinase (Homo sapiens, UniProt O60285) | 57% |
| Cc1ccc2c(-c3nc(Nc4cc(C5CC5)cc(N5CCN(CCO)CC5)c4)ncc3Cl)c[nH]c2c1 [Example 2] | NUAK1 (ARK5) kinase (Homo sapiens, UniProt O60285) | 71% |
| Cc1ccc2c(-c3nc(Nc4cc(C5CC5)cc(N5CCC(N(C)C)C5)c4)ncc3Cl)c[nH]c2c1 (stereo not drawn) [Example 16] | NUAK1 (ARK5) kinase (Homo sapiens, UniProt O60285) | 67% |
| Cc1ccc2c(-c3nc(Nc4cc(C5CC5)cc(N5CCN(C(C)(C)CO)CC5)c4)ncc3Cl)c[nH]c2c1 [Example 17] | NUAK1 (ARK5) kinase (Homo sapiens, UniProt O60285) | 72% |

Provenance of the data: patent US10519141B2
